# EXPERIMENTAL TARGET: chemically synthesized full-length heterochromatin protein 1α without PTMs (21) (UniProt P45973 1-191)
# Sequence (P45973 whole entry): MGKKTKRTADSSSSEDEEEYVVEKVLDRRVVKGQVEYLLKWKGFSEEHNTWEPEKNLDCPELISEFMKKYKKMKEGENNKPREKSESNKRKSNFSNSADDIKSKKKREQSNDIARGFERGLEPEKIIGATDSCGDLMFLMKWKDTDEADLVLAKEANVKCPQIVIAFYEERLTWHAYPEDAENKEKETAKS
# ASSAY PROCEDURE: fluorescence polarisation
Ends that are not written are not given here.
REPORTED PROPERTY: pKd
One number for each entry, as −log10 of the molar value.

// NVSLYPVVKIRRLSLSPKKNK (peptide, UniProt Q5FBB7 446-466, looked up, also: fluorescein, position not given here) [Sgo1 peptide (residues 446–466) bearing fluorescein] : pKd value = 6.33
